Test system: CDC42BPA
Design: species or system human, MV4-11 + K-562 + COLO205 + SK-N-BE2 + OVCAR-8
measurement conditions: read-out: apparent Kd; compound concentrations:100 nM and 1000 nM (sheet 'Samples'); n = 1
experimental endpoint: potency estimated from few doses

>>> reported_measurement("CCn1c(-c2nonc2N)nc2cncc(C(=O)N3CC[C@H](N)C3)c21.Cl")
"1170 nM"
>>> reported_measurement("CCn1c(-c2nonc2N)nc2cncc(Br)c21")
"2130 nM"
>>> reported_measurement("Cl.Cl.NC[C@H](CC1CCCCC1)NC(=O)c1cc(Br)c(-c2ccnc3[nH]ccc23)s1.NC[C@H](CC1CCCCC1)NC(=O)c1cc(Br)c(-c2ccnc3[nH]ccc23)s1 [GSK1581427A]")
"119 nM"
>>> reported_measurement("CCn1c(-c2nonc2N)nc2c(C#CC(C)(C)O)ncc(OCCCCN)c21.CCn1c(-c2nonc2N)nc2c(C#CC(C)(C)O)ncc(OCCCCN)c21.O=C(O)C(F)(F)F.O=C(O)C(F)(F)F [GSK507274A]")
"2200 nM"
>>> reported_measurement("COc1ccc(C[C@@H](CN)NC(=O)c2cc(Br)c(-c3ccnc4[nH]ccc34)s2)cc1.COc1ccc(C[C@@H](CN)NC(=O)c2cc(Br)c(-c3ccnc4[nH]ccc34)s2)cc1.Cl.Cl [GSK1389063A]")
"757 nM"

Now for another entry.
Ask: What value of potency estimated from few doses has been recorded for this entry: Cl.Cl.NC[C@H](CC1CCCCC1)NC(=O)c1ccc(-c2ccnc3[nH]ccc23)s1.NC[C@H](CC1CCCCC1)NC(=O)c1ccc(-c2ccnc3[nH]ccc23)s1 [GSK1581428A]
Reply: 28.9 nM

====

# Lookup of reported potency estimated from few doses keyed by entry
Test system: GSK3A
Parameters: species or system human, MV4-11 + K-562 + COLO205 + SK-N-BE2 + OVCAR-8
measurement conditions: read-out: apparent Kd; compound concentrations:100 nM and 1000 nM (sheet 'Samples'); n = 1
Quick reminder: number only, in nM, skip the unit.

Study these solved cases before continuing.
>>> reported_measurement("O=C(Nc1n[nH]c2nc(-c3nccs3)c(Br)cc12)C1CC1 [SB-742251]")
873
>>> reported_measurement("CC(=O)c1c(-c2ccncc2)[nH]c(-c2ccncc2)c1C [GW493036X]")
400
>>> reported_measurement("CN1C[C@@H]2Cn3c(c(C4=C(c5cn(C)c6ccccc56)C(=O)NC4=O)c4ccccc43)C[C@H]2C1.Cl [RO0320234-001]")
99

API: the following record is the query input.
Ask: // returns reported potency estimated from few doses for input COc1cccc(-n2ncc3c(N/N=C/c4ccncc4)ncnc32)c1 [GW784752X]
Reply: 47.2

====

Tested on: CDK9
Design: species or system human, MV4-11 + K-562 + COLO205 + SK-N-BE2 + OVCAR-8
measurement conditions: read-out: apparent Kd; compound concentrations:100 nM and 1000 nM (sheet 'Samples'); n = 1
Please respond with fulfilled when measured potency estimated from few doses is strictly beneath 700 nM, and with not fulfilled in all other cases.

Worked examples follow.
>>> assigned_category("COc1ccc(F)cc1C(=O)c1cnc(NC2CCN(S(C)(=O)=O)CC2)nc1N")
"fulfilled"
>>> assigned_category("Nc1n[nH]c2cnc(-c3ccccc3)cc12")
"not fulfilled"
>>> assigned_category("CCN1CCN(CCCC(=O)Nc2n[nH]c3nc(-c4ccc(O)cc4)c(Br)cc23)CC1")
"not fulfilled"

Ask: Does this compound meet the criterion potency estimated from few doses < 700 nM? COc1cc[nH]c1/C=C1\C(=O)Nc2ccc(F)c(C#C[C@@H](O)[C@@H](N)[C@@H](C)O)c21
Reply: not fulfilled

Ask: Lab note: potency estimated from few doses threshold 700 nM. Does this compound come in strictly under it? Cc1cnc(Nc2ccc(F)cc2Cl)nc1-c1c[nH]c(C(=O)N[C@H](CO)c2cccc(Cl)c2)c1 [Vertex11e]
Reply: not fulfilled

Ask: Does this compound meet the criterion potency estimated from few doses < 700 nM? CN1CCC(C(=O)Nc2n[nH]c3nc(-c4ccc(O)cc4)c(Br)cc23)CC1.O=C(O)/C=C\C(=O)O
Reply: fulfilled

Ask: Confirm or reject: potency estimated from few doses of CC(=O)c1c(-c2ccncc2)[nH]c(-c2ccncc2)c1C [GW493036X] lies strictly below 700 nM
Reply: fulfilled

Ask: Hello, I'm reviewing records and need to know if potency estimated from few doses of N#Cc1cccc(Nc2nccc(-c3cnn4ncccc34)n2)c1 [GW778894X] is below 700 nM. Could you check?
Reply: fulfilled
